# Assay remarks: small molecules captured by biotinylated probe aFGF2 – biochemical, small-molecule microarray, fluorescence 635/667, stem cell growth factor project, primary screen (AID 1067);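 further: measures binding of biotinylated aFGF2 protein to printed compounds on slides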
# Assay setup: higher = more signal
Label Yes when composite z-score is at or above -0.03; anything below gets No.

A selection of reference data follows.
Compound	Class name
CCCCCCCCCCC(O)C1C=CC2C(=O)N(c3ccccc3)C(=O)C2N1Nc1ccc([N+](=O)[O-])cc1 (configuration not stated)	Yes
CN(C)CCCC[C@@H]1NC(=O)[C@@H]2C[C@H](C(=O)NCCCCCN)[C@H](c3ccc(O)cc3)N2C1=O	No
CC(=O)NCCCC[C@@H]1NC(=O)[C@@H]2C[C@H](C(=O)NCCCCCC[N+](C)(C)C)[C@H](c3cccc(OCCO)c3)N2C1=O	Yes
C=C(CCCC)/C(=C/C[C@H](OC(C)=O)c1ccc(CO)o1)c1cc(C(=O)OC)ccc1OC	No

Now consider a different compound.
Could you tell me if the measured composite z-score of "CC(=O)N1Cc2ccccc2C[C@@]2(N=C(c3ccc(OCCCO)cc3)O[C@H]2c2ccccc2)C1=O" reaches -0.03 or more? Yes

---

# Assay remarks: probe aShh binding to arrayed compounds – biochemical, biotinylated probe, 635/667 nm fluorescence, primary screen (AID 1114);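 further: probe is biotin-labelled aShh protein from a stem cell growth factor screen; measures binding of labelled protein to compounds printed on the slide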
# Assay setup: small-molecule microarray, higher = more signal
Label Y when composite z-score is at or above 0.2; anything below gets N.

Molecule	Class name
CO[C@H]1O[C@H](CO)[C@@H](OC(=O)Nc2ccc(C(F)(F)F)cc2)[C@H](OC(=O)Nc2ccccc2)[C@@H]1OC(=O)Nc1ccccc1	N

Could you tell me if the measured composite z-score of "COc1ccccc1CN1C(=O)c2ccccc2[C@](Cc2ccccc2I)(C(=O)NC2CC2)[C@@H]1c1ccc(CO)cc1" reaches 0.2 or more? Y

Could you tell me if the measured composite z-score of "O=S(=O)(NCCCO)c1ccc(Br)cc1" reaches 0.2 or more? N

Could you tell me if the measured composite z-score of CCN(CC)c1ccc(N2CC=CC34O[C@@H]5C=CCCOC(=O)C5[C@H]3C(=O)N(CCCO)[C@@H]4C2=O)cc1 (stereo not given in full) reaches 0.2 or more? N

Could you tell me if the measured composite z-score of O=C1C2C=CC(C(O)c3ccc(-c4ccccc4)s3)N(Nc3ccccc3F)C2C(=O)N1c1ccccc1 (stereo not given) reaches 0.2 or more? Y

Could you tell me if the measured composite z-score of "O=C1O[C@@H](c2ccccc2)[C@@H](c2ccccc2)N2[C@@H](c3ccc(O)cc3)[C@]3(C(=O)Nc4ccc(C#CCCO)cc43)[C@@H](C(=O)O)[C@H]12" reaches 0.2 or more? Y

Could you tell me if the measured composite z-score of "CN(C)CCCCCCNC(=O)[C@@H]1C[C@@H]2C(=O)NCC(=O)N2[C@@H]1c1cccc(OCCO)c1" reaches 0.2 or more? N

Could you tell me if the measured composite z-score of O=P(NCC1(CC2(c3ccccc3)CO2)CC1)(c1ccccc1)c1ccccc1 (stereo not given) reaches 0.2 or more? Y

Could you tell me if the measured composite z-score of "C=C(C(=O)CC[C@@H](OC(C)=O)c1ccc(OCCO)cc1)C(C)C" reaches 0.2 or more? N

Could you tell me if the measured composite z-score of "COc1ccc([Si](C)(C)[C@@H]2[C@@H](CCO)O[C@]3(C(=O)N(Cc4ccccc4)c4ccc(N(C=O)c5ccccc5)cc43)[C@H]2C)cc1" reaches 0.2 or more? N

Could you tell me if the measured composite z-score of O=C1OCC=C[C@H]2OC34C=CCN(Cc5ccccc5)C(=O)[C@H]3N(CCCO)C(=O)[C@@H]4[C@@H]12 (stereo not given in full) reaches 0.2 or more? Y

Could you tell me if the measured composite z-score of "COc1ccc([Si](C)(C)[C@H]2[C@H](CC(=O)N(CCO)Cc3ccccc3)O[C@@]3(C(=O)N(Cc4cccc(N5C(=O)c6cccc7cccc5c67)c4)c4ccccc43)[C@@H]2C)cc1" reaches 0.2 or more? N

Could you tell me if the measured composite z-score of "C[N+](C)(C)CCCCNC(=O)[C@H]1C[C@H]2C(=O)N3CCC[C@H]3C(=O)N2[C@H]1c1ccc(O)cc1" reaches 0.2 or more? N

Could you tell me if the measured composite z-score of "C=CCN1Cc2ccccc2C[C@]2(N=C(c3ccc(OCCCO)cc3)O[C@@H]2c2ccccc2)C1=O" reaches 0.2 or more? N

Could you tell me if the measured composite z-score of "COC(=O)[C@@]1(Cc2ccc(F)cc2)[C@H]2c3cc(C(=O)N(C)C)n(Cc4ccccn4)c3C[C@H]2CN1C(=O)c1ccccc1" reaches 0.2 or more? N
